# Assay notes: Binding affinity to Aplysia californica AchBP V108M mutant expressed in HEK293S cells by scintillation proximity assay
# Type: cell-based
Measure: pKd
pKd here: minus log base 10 of the concentration, concentration in moles per litre.

Prompt line: Given the entry Clc1ccc(C2CC3CCC2N3)cn1 (racemic) [EPIBATIDINE] , report its measured pKd.
Response line: 8.12

---

# Assay notes: Binding affinity to Aplysia californica AchBP M116L mutant expressed in HEK293S cells by scintillation proximity assay
# Type: cell-based
Measure: pKd
A value of pKd is the negative decimal logarithm of a concentration given in moles per litre.

Prompt line: Request the reported pKd associated with Clc1ccc(C2CC3CCC2N3)cn1 (racemic) [EPIBATIDINE]
Response line: 8.05
